substrate: pNPB; assay: Proxy for plastic degradation [kcat/Km (catalytic efficiency)] (mM⁻¹s⁻¹); settings: pH 7

protein | Proxy for plastic degradation
unnamed (protein) MNFPRASRLMQAAVLGGLMAVSAAATAQTNPYARGPNPTAASLEASAGPFTVRSFTVSRPSGYGAGTVYYPTNAGGTVGAIAIVPGYTARQSSIKWWGPRLASHGFVVITIDTNSTLDQPSSRSSQQMAALRQVASLNGTSSSPIYGKVDTARMGVMGWSMGGGGSLISAANNPSLKAAAPQAPWDSSTNFSSVTVPTLIFAAENDSIAPVNSSALPIYDSMSRNAKQFLEINGGSHSAANSGNSNQALIGKKGVAWMKRFMDNDTRYSTFACENPNSTRVSDFRTANCS | 0
unnamed (protein) MDGVLWRVRTAALMAALLALAAWALWASPSVEAQSNPYQRGPNPTRSALTADGPFSVATYTVSRLSVSGFGGVIYYPTGTSLTFGGIAMSPGYTADASSLAWLGRRLASHGFVVLVINTNSRFDYPDSRASQLSAALNYLRTSSPSAVRARLDANRLAVAGHSMGGGGTLRIAEQNPSLKAAVPLTPWHTDKTFNTSVPVLIVGAEADTVAPVSQHAIPFYQNLPSTTPKVYVELDNASHSAPNSNNAAISVYTISWMKLWVDNDTRYRQFLCNVNDPALSDFRTNNRHCQCQ | 175

Measured values drawn from the PETadex activity labels (doi:10.1016/j.ijbiomac.2025.149745) for this set.
